Ref: paper PMC11676667

EXPERIMENT: Plasma pharmacokinetics after single oral dose of Δ8-THCV in MCT oil (LC-MS/MS, non-compartmental analysis)
Format: in vivo, human
MEASUREMENT PARAMETERS: human, plasma, oral, 200 mg, 8 h; 200 mg Δ8-THCV dose; Mean (SD, %CV)
Note to self: values exactly at 20 ng/mL are t. So concentration at 8 h at or above 20 ng/mL is t, below is f.

Field: example entries. Status: answers known.
CCCc1cc(O)c2c(c1)OC(C)(C)[C@@H]1CC=C(CO)C[C@@H]21 (racemic) [11-OH-Δ8-THCV, (±)-11-hydroxy-Δ8-THCV]
f
CCCc1cc(O)c2c(c1)OC(C)(C)[C@@H]1CCC(C(=O)O)=C[C@@H]21 [Δ9-THCV-COOH, 11-nor-9-carboxy-Δ9-THCV]
t

Q: Has CCCCCc1cc(O)c2c(c1)OC(C)(C)[C@@H]1CC=C(C(=O)O)CC21 (single isomer, unassigned; (+)) [Δ8-THC-COOH, (+)-11-nor-Δ8-THC-9-carboxylic acid] a recorded concentration at 8 h greater than or equal to 20 ng/mL?
Result: f

Q: Has CCCc1cc(O)c2c(c1)OC(C)(C)[C@@H]1CCC(C)=C[C@@H]21 [Δ9-THCV, Δ9-tetrahydrocannabivarin] a recorded concentration at 8 h greater than or equal to 20 ng/mL?
Result: f

Q: Has CCCc1cc(O)c2c(c1)OC(C)(C)[C@@H]1CC=C(C(=O)O)C[C@@H]21 [Δ8-THCV-COOH, 11-nor-9-carboxy-Δ8-THCV] a recorded concentration at 8 h greater than or equal to 20 ng/mL?
Result: t

Q: Has CCCc1cc(O)c2c(c1)OC(C)(C)[C@@H]1CC=C(C)C[C@@H]21 [Δ8-THCV, Δ8-tetrahydrocannabivarin] a recorded concentration at 8 h greater than or equal to 20 ng/mL?
Result: t
